tested on: winter wheat (Triticum aestivum); assay: Test C preemergence; assay type: in vivo; conditions: Triticum aestivum, pre-emergence, 336 h; 125 g ai/ha, preemergence; scale 0 to 100; read-out: Plant response rating, Wheat
READOUT LABEL: plant injury at 125 g/ha
Numeric answer plus unit only.

Some molecules with known plant injury at 125 g/ha results, for comparison:
> print(dat)
                                   molecule                    assayed.target  reported.value
1  N#Cc1cccc(Oc2ncc(Cl)cn2)c1Oc1ccc(Br)cn1 [Compound 15]  winter wheat (Triticum aestivum)             40%
2  Fc1cccc(Oc2ncc(Cl)cn2)c1Oc1ncc(Cl)cn1 [Compound 21]  winter wheat (Triticum aestivum)             90%
3  Fc1cnc(Oc2c(F)ccc(F)c2Oc2ncc(F)cn2)nc1 [Compound 29]  winter wheat (Triticum aestivum)             60%

Fill in plant injury at 125 g/ha for each of the 3 molecules listed.
1. Fc1cccc(Oc2ncc(Cl)cn2)c1Oc1ncc(Br)cn1 [Compound 27]
2. N#Cc1cccc(Oc2ncc(Cl)cn2)c1Oc1cnc(Cl)cn1 [Compound 32]
3. N#Cc1cccc(Oc2ncc(Cl)cn2)c1Oc1ncc(Cl)cn1 [Compound 3]

OUT:
1. 40%
2. 5%
3. 90%

====

tested on: galium (catchweed bedstraw, Galium aparine); test: Test C preemergence; type: in vivo; settings: Galium, pre-emergence, 336 h; 31 g ai/ha, preemergence; scale 0 to 100; read-out: Plant response rating, Galium
Description: […]
READOUT LABEL: pest or weed control at 31 g/ha (%)
Give bare numbers, in %.

Some compounds with known pest or weed control at 31 g/ha results, for comparison:
> print(dat)
                                item.smiles                    readout.label  reported.value
1  Fc1ccc(F)c(Oc2ncc(Cl)cn2)c1Oc1ncc(Cl)cn1  pest or weed control at 31 g/ha              95
2     Fc1cccc(Oc2ncc(Cl)cn2)c1Oc1ncc(Br)cn1  pest or weed control at 31 g/ha             100
3   N#Cc1cccc(Oc2ncc(Cl)cn2)c1Oc1cnc(Cl)cn1  pest or weed control at 31 g/ha              95
4   N#Cc1cccc(Oc2ncc(Cl)cn2)c1Oc1ncc(Br)cn1  pest or weed control at 31 g/ha              30

Here is the next item to consider.
For this compound ( "Fc1cccc(Oc2ncc(C(F)(F)F)cn2)c1Oc1ncc(Cl)cn1" ), measured pest or weed control at 31 g/ha is 95

====

tested on: pigweed (Amaranthus retroflexus); assay: Test A preemergence; format: in vivo; conditions: Amaranthus retroflexus, pre-emergence, 240 h, 125 g ai/ha, 0 to 100 scale, read-out: Plant response rating, Pigweed
Could you please report measured pest or weed control at 125 g/ha for the items listed next?

> print(dat)
                               item.smiles                    assayed.target                     readout.label  reported.value
1      N#Cc1cccc(Oc2ncc(Br)cn2)c1Oc1cccnc1  pigweed (Amaranthus retroflexus)  pest or weed control at 125 g/ha              0%
2   N#Cc1cccc(Oc2ncc(F)cn2)c1Oc1ccc(Br)cn1  pigweed (Amaranthus retroflexus)  pest or weed control at 125 g/ha            100%
3  N#Cc1cccc(Oc2ncc(Br)cn2)c1Oc1ccc(Cl)cn1  pigweed (Amaranthus retroflexus)  pest or weed control at 125 g/ha            100%

Here is the next item to consider.
For this compound ( "FC(F)c1cnc(Oc2c(Br)cccc2Oc2ncc(Cl)cn2)s1" ), measured pest or weed control at 125 g/ha is 100%
